# Test system: SK-MEL-28 melanoma
# Assay summary: NCI tumour cell line growth inhibition, 48 h; in the data active means GI50 below about 0.43 µM; inactive means the rest
Use one of these outcomes when replying: active, inactive

Call for entry `N=C(N)c1ccc(-c2ccc(-c3ccc(F)cc3)s2)nc1` :
inactive

---

Items are presented alongside their recorded TGI.
# Tested on: OVCAR-8 ovarian
# Assay summary: NCI tumour cell line growth inhibition, 48 h
API: value field is a number in µM; no unit string.

1. COc1cccc(-n2ncc3c(N/N=C/c4cccc(F)c4)ncnc32)c1 | 18

Can you look up the measured TGI of `COc1cccc(C=O)c1[O-].COc1cccc(C=O)c1[O-].[Cu+2]` for me?
44.7

---

# System: HOP-62 NSCLC
# Assay summary: NCI tumour cell line growth inhibition, 48 h
Items are presented alongside their recorded TGI.
API: value field is a number in µM; no unit string.

1) Cc1ccc2cc3cccc(C(=O)NCCN(C)C)c3nc2c1 | 6.17
2) O=c1oc2ccccc2c(O)c1/C=N\c1nc(-c2ccc(O)c(O)c2)cs1 | 31.2
3) N=C(N)c1ccc(-c2ccc(-c3cccs3)o2)cc1 | 4.32

// below: TGI requested for another molecule
Can you look up the measured TGI of `Clc1ccc(-c2nc(-c3ccccc3)cn3ccnc23)cc1` for me?
52.5

---

# Tested on: SK-OV-3 ovarian
# Assay summary: NCI tumour cell line growth inhibition, 48 h
Items are presented alongside their recorded TGI.

1. NC(=O)c1ccc(NCC2=CC(=O)C=CC2=O)cc1 | > 100 µM
2. COc1c(Cl)nc2ccccc2c1N=[N+]=[N-] | > 100 µM
3. O=C(Nc1ccc(-n2ccc3c(NC(=O)c4ccccc4)ncnc32)cc1)c1ccc(Cl)c(C(F)(F)F)c1 | 25.5 µM
4. N=C(N)CCNC(=O)C1CCC(N)=N1 (stereo unspecified) | > 69.3 µM
5. CS(=O)(=O)c1ccc(NNc2cc(=O)[nH]c(=O)[nH]2)cc1 | > 100 µM

Can you look up the measured TGI of `O=C(/C=C/c1ccccc1O)c1cccs1` for me?
> 100 µM

Subsequent entry: `CC(C)S(=O)(=O)ON1C(=O)c2ccc(N(C)C)cc2C1=O`
> 78.6 µM

Subsequent entry: O=c1cc(O)ccn1C1C=C(CO)C(O)C1O (stereo unspecified)
> 625 µM

Subsequent entry: CCNC(=O)OCC1C2=C(C(=O)C(C)=C(N)C2=O)N2CC3C(N3C)C12OC (stereo unspecified)
> 100 µM

Subsequent entry: `O=c1[nH]c2c3ccncc3cc(-c3cccc(Cl)c3)c2c2cnccc12`
> 100 µM

Subsequent entry: `O=[N+]([O-])c1ccc2c3c1[C@H]1O[C@H]1c1cccc(c1-3)[C@@H]1O[C@H]21`
11.6 µM

---

# System: SN12C renal
# Assay summary: NCI tumour cell line growth inhibition, 48 h; in the data active means GI50 below about 0.43 µM; inactive means the rest
Where a SMILES comes first, the peptide text is derived from it. [ ]: non-standard residue; d: D form. The star is where a group is joined. ξ: configuration not given here. NMeF = CN[C@@H](Cc1ccccc1)C(=O)O; NMeN = CN[C@@H](CC(N)=O)C(=O)O; NMeV = CN[C@H](C(=O)O)C(C)C; ξNMeV = CNC(C(=O)O)C(C)C; Boc = CC(C)(C)OC(=O)*; ξNMeA = CNC(C)C(=O)O; ξV = CC(C)C(N)C(=O)O
Use one of these outcomes when replying: active, inactive

Solved entries:
1. C=C1C(C(O)C[C@H](C)C2O[C@@]3(CCCCO3)CCC2C)O[C@@H]2CCC3(CCC(/C=C/[C@@H](C)C4CC(C)=CC5(O4)O[C@H](C[C@](C)(O)C(=O)O)CCC5O)O3)OC2[C@@H]1O (stereo partly drawn) | active
2. Cc1cc(-c2ccc(C3C(C#N)=C(N)Oc4c3c(=O)oc3ccccc43)cc2)cnc1F (stereo not drawn) | inactive
3. C1CCC(C(CC2CCCCN2)C2CCCCC2)CC1 (stereo not drawn) | inactive
4. COC(=O)C(C)N(C)C(=O)[C@H](CC(N)=O)N(C)C(=O)[C@@H]1CCCN1C(=O)[C@H](C(C)C)N(C)C(=O)C(C(C)C)N(C)C(=O)[C@H](Cc1ccccc1)N(C)C(=O)C(NC(=O)OC(C)(C)C)C(C)C (stereo partly drawn) (Boc-[ξV][NMeF][ξNMeV][NMeV]P[NMeN][ξNMeA]-OMe) | inactive
5. O=C(C1CC1)N1CC[C@@H](Cc2n[nH]c(=O)n2-c2ccc(-c3ccc4occc4c3)cc2)C1 | inactive
6. c1ccc(-c2cccc(-c3ccccn3)n2)nc1 | active

Call for entry `COC(=O)[C@]12CC[C@@H](C(=O)/C=C/c3cccnc3)[C@@H]1[C@H]1CC[C@@H]3[C@@]4(C)C/C(=C/c5cccnc5)C(=O)C(C)(C)[C@@H]4CC[C@@]3(C)[C@]1(C)CC2` :
inactive

Subsequent entry: `CC(C)CC(=O)[O-].N.N.N.N.N.[Co+3].[O-][Cl+3]([O-])([O-])[O-]`
inactive

---

# System: K-562 leukemia
# Assay summary: NCI tumour cell line growth inhibition, 48 h
Items are presented alongside their recorded TGI.

Known results for compounds:
1) CS(=O)(=O)c1ccc(NNc2cc(=O)[nH]c(=O)[nH]2)cc1 | > 100 µM
2) O=C(Cc1ccc(OCc2ccccc2)cc1)NCc1ccc2c(c1)OCO2 | > 100 µM
3) CCCCCCCCCCCCCCCCCCNc1nc(=O)n(C2CC(O)C(COP(=O)(O)OCC(COP(=O)(O)OC3C(CO)OC(n4ccc(N)nc4=O)C3O)OCCCCCCCCCCCCCCCCCC)O2)cc1F (centres undefined) | > 100 µM

Can you look up the measured TGI of `C=C[C@]1(C)C[C@@H](OC(=O)CO)[C@@]2(C)[C@H](C)CC[C@]3(CCC(=O)[C@H]32)[C@@H](C)[C@@H]1O` for me?
> 75.1 µM

---

Items are presented alongside their recorded TGI.
# System: HCT-116 colon
# Assay summary: NCI tumour cell line growth inhibition, 48 h

Known results for compounds:
1) CN(CCCN(C)Cc1ccc(Cl)c(Cl)c1)CCN1CCCC1 | > 54.2 µM
2) COc1c(Cl)nc2ccccc2c1N=[N+]=[N-] | > 100 µM
3) CCO/C(O)=C(/C(=N)N1CCOCC1)C(=O)Nc1cccc(Cl)c1 | > 100 µM
4) COC1OC(Cn2c(C)nc(Br)c2Br)C(O)C(O)C1O (stereo not given) | > 100 µM
5) COC(=O)C1C(O)C(C)C(O)C(C)(O)/C=C/C=C(C)C(=O)Nc2c(C)c(OC(C)=O)c3c(c2O)C(=O)C(C)=C2OCOC(=C23)C(C)=CC(C)(O)C(O)C(C)C1OC(C)=O (stereo not given) | 34.5 µM

What TGI appears in the records for this compound with HCT-116 colon? `O=C(O)c1c[nH]c2cc(OCc3ccccc3)ccc2c1=O`
31 µM

Subsequent entry: CC(=O)c1cccc(NC(=O)C(=O)C(C(=O)NN)c2ccccc2)c1 (stereo not given)
> 100 µM

---

Items are presented alongside their recorded TGI.
# Test system: MDA-MB-435
# Assay summary: NCI tumour cell line growth inhibition, 48 h
API: value field is a number in µM; no unit string.

Known results for molecules:
1. CC(=O)Nc1ccc(S(=O)(=O)/N=C2\C=CC(=O)c3ccccc32)cc1 | 3.36
2. Clc1ccc(-c2nc(-c3ccccc3)cn3ccnc23)cc1 | 7.52
3. CNCCC/C=C1\c2cc3c(cc2-c2c1c1cc(OC)c(OC)cc1c(=O)n2C)OCO3 | 13.4

Can you look up the measured TGI of Cc1c2cccc(Sc3ccccc3)c2c2c3c(cccc13)[S+](c1ccccc1)C2 (stereo unspecified) for me?
5.24

Subsequent entry: `CC(C)c1nc(Cl)nc(Cl)c1Cl`
2.69

Subsequent entry: `c1ccc(-c2nc([P+](c3ccccc3)(c3ccccc3)c3ccccc3)c(N3CCOCC3)o2)cc1`
4.55

Subsequent entry: `Oc1ccc(Cl)cc1-c1cc(-c2ccc(Cl)cc2)n[nH]1`
14.2

---

# Test system: CAKI-1 renal
# Assay summary: NCI tumour cell line growth inhibition, 48 h; in the data active = GI50 below about 0.43 µM; inactive = the rest
Use one of these outcomes when replying: 1 for active, -1 for inactive

Solved entries:
1. Cc1oc2nc[nH]c(=O)c2c1C(=O)/C=C/c1ccc(Br)cc1 | -1
2. CN1C(=O)C23CC4(C56CC78SSC(CO)(C(=O)N7C5Nc5ccccc56)N(C)C8=O)c5ccccc5NC4N2C(=O)C1(CO)SS3 (centres undefined) | 1
3. CCN1C2=C(SC(=S)C1=C1SC(C(=O)OC)=C(C(=O)OC)S1)SC(=Nc1ccc(OC)cc1)C2=O | -1

Call for entry CCCCCCCCCOc1c(OC)cc(C2CC(=O)Nc3c2c(C)nn3-c2nc3ccccc3[nH]2)cc1OC (centres undefined) :
-1

Subsequent entry: `CN(C)c1ccc(N=Nc2ccc(Br)cn2)c(O)c1`
-1

Subsequent entry: COC(=O)C1C(O)C(C)C(O)C(C)(O)/C=C/C=C(C)C(=O)Nc2c(C)c(OC(C)=O)c3c(c2O)C(=O)C(C)=C2OCOC(=C23)C(C)=CC(C)(O)C(O)C(C)C1OC(C)=O (centres undefined)
-1

Subsequent entry: `c1ccc(-c2nc([P+](c3ccccc3)(c3ccccc3)c3ccccc3)c(N3CCOCC3)o2)cc1`
-1

Subsequent entry: CC(C)=C[C@@H]1C[C@H](C)[C@H]2CC[C@H](C)c3c(O)c(OC4OCC(O)C(O)C4O)c(C)c1c32 (some centres undefined)
-1

Subsequent entry: `O=c1c2[nH]ccc2nc2n1CCS2`
-1

Data origin, for the record: PubChem BioAssay (NCI)
